Data provenance: patent US20110064740A1

Quick list: Kd per entry.
tgt: T1, human Aβ peptide (1-40) biotinylated at the C terminus (human, UniProt P05067 672-711, biotinylated at the C-terminus)
T1 construct: domain: β-amyloid peptide (1-40); Numbers 1-40 count on the β-amyloid peptide, not on APP; also called beta-amyloid 1-40 peptide (biotinylated at the C-terminus); streptavidin-captured beta-amyloid (1-40)
assay method text: SPR Biacore 3000, Method A(i): C-terminally biotinylated β-amyloid 1-40 on streptavidin chip, antibody as analyte; Run 1
Kindly answer with a numeric value in nM, unit omitted.

Humanised 2E7 variant H1L1 (antibody, human IgG1, kappa, V domains shown, Human IgG1 with L235A and G237A, human kappa; also called L1+H1) VH: EVQLVESGGGLVQPGGSLRLSCAASGFTFSDNGMAWVRQAPGKGLEWVSFISNLAYSIDYADTVTGRFTISRDNAKNSLYLQMNSLRAEDTAVYYCVSGTWFAYWGQGTLVTVSS VL: DIVMTQSPLSLPVTPGEPASISCRVSQSLLHSNGYTYLHWYLQKPGQSPQLLIYKVSNRFSGVPDRFSGSGSGTDFTLKISRVEAEDVGVYYCSQTRHVPYTFGGGTKVEIKR | 0.095

Please give the measured Kd for this binder: Chimeric 2E7 antibody (2E7c) (antibody, human IgG1, V domains shown, Parent murine V regions on human IgG1 (L235A, G237A) and human C kappa; also called 2E7c Chimera; not shown: human IgG1 heavy chain constant region, Fc mutated (L235A, G237A); human C kappa constant region) VH: EVKLVESGGGLVQPGGSLKLSCAVSGFTFSDNGMAWVRQAPRKGPEWIAFISNLAYSIDYADTVTGRFTISRDNAKNTLYLEMSSLRSEDTAMYYCVSGTWFAYWGQGTLVTVSA VL: DVVLTQTPLSLPVSLGDQASISCRVSQSLLHSNGYTYLHWYLQKPGQSPKLLIYKVSNRFSGVPDRFSGSGSGTDFTLKISRVEAEDLGVYFCSQTRHVPYTFGGGTKLEIK
0.0481

Quick one: Kd of Humanised 2E7 variant H2L1 (antibody, human IgG1, kappa, V domains shown, Human IgG1 with L235A and G237A, human kappa; also called L1+H2; H2L1 whole IgG) VH: EVQLVESGGGLVQPGGSLRLSCAVSGFTFSDNGMAWVRQAPGKGLEWVSFISNLAYSIDYADTVTGRFTISRDNAKNSLYLQMNSLRAEDTAVYYCVSGTWFAYWGQGTLVTVSS VL: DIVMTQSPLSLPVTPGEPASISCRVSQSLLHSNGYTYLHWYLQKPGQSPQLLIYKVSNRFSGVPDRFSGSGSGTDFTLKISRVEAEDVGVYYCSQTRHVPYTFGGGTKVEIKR ?
0.0581
